- System: rodent lifetime carcinogenesis bioassay, tumor incidence TD50
- protocolText: carcinogenic potency in animals, long-term in vivo studies, CPDB compilation (AID 1745844)
- appliedConditions: rat; strain Not specified; males; in feed; site: any site (literature study); lesion: one or several types; types not named; dosed 104 weeks; study length 104 weeks
Calls of active or inactive are those of the source. The rule behind the calls is not given here.
measuredParameter: TD50

Request: TD50, test system rodent lifetime carcinogenesis bioassay, tumor incidence TD50, entry ClC1=C(Cl)[C@]2(Cl)[C@@H]3[C@@H]4C[C@@H]([C@H]5O[C@@H]45)[C@@H]3[C@@]1(Cl)C2(Cl)Cl
40.5 mg/kg/day (inactive)

###

- Test system: rodent lifetime carcinogenesis bioassay, tumor incidence TD50
- protocolText: carcinogenic potency in animals, long-term in vivo studies, CPDB compilation (AID 1745844)
- appliedConditions: mouse; strain C57BL/6JfC3Hf/Nctr x BALB/cStCrlfC3Hf/Nctr inter se; females; in drinking water; site: liver; lesion: hepatocellular carcinoma; dosed 60 weeks; study length 60 weeks
measuredParameter: TD50

Quick one: TD50 of Nc1ccc(-c2ccc(N)cc2)cc1 ?
17.9 mg/kg/day

###

- Test system: rodent lifetime carcinogenesis bioassay, tumor incidence TD50
- protocolText: carcinogenic potency in animals, long-term in vivo studies, CPDB compilation (AID 1745844)
- appliedConditions: mouse; strain CDF1; females; in feed; site: liver; lesion: several types; types named in the paper; dosed 82 weeks; study length 82 weeks
measuredParameter: TD50

Quick one: TD50 of Nc1ccc2nc3ccccn3c2n1 ?
12 mg/kg/day

###

- Tested on: rodent lifetime carcinogenesis bioassay, tumor incidence TD50
- protocolText: carcinogenic potency in animals, long-term in vivo studies, CPDB compilation (AID 1745844)
- appliedConditions: rat; strain F344/DuCrj; males; in feed; site: urinary bladder; lesion: carcinoma; dosed 104 weeks; study length 104 weeks
The source made the active and inactive calls. The rule behind the calls is not given here.
measuredParameter: TD50

Request: TD50, test system rodent lifetime carcinogenesis bioassay, tumor incidence TD50, entry O=C(O)O
5350 mg/kg/day (inactive)

###

- Test system: rodent lifetime carcinogenesis bioassay, tumor incidence TD50
- protocolText: carcinogenic potency in animals, long-term in vivo studies, CPDB compilation (AID 1745844)
- appliedConditions: mouse; strain CTM; males; in feed; site: several sites; sites named in the paper; lesion: carcinoma; dosed 40 weeks; study length 73 weeks
measuredParameter: TD50

Quick one: TD50 of O=[N+]([O-])c1ccc(-c2cnc3ccccn23)o1 ?
40.1 mg/kg/day

###

- System: rodent lifetime carcinogenesis bioassay, tumor incidence TD50
- protocolText: carcinogenic potency in animals, long-term in vivo studies, CPDB compilation (AID 1745844)
- appliedConditions: rat; strain Hebrew University; males; several routes; site: any site (literature study); lesion: several types; types named in the paper; dosed 95 weeks; study length 95 weeks
measuredParameter: TD50 (mg/kg/day)
The answer is to be given in mg/kg/day; state only the numeric part.

Quick one: TD50 of NC(N)=S ?
50.8

###

- Tested on: rodent lifetime carcinogenesis bioassay, tumor incidence TD50
- protocolText: carcinogenic potency in animals, long-term in vivo studies, CPDB compilation (AID 1745844)
- appliedConditions: mouse; strain B6C3F1; males; by gavage; site: liver; lesion: hepatocellular adenoma + hepatocellular carcinoma; dosed 90 weeks; study length 104 weeks
measuredParameter: TD50

Request: TD50, test system rodent lifetime carcinogenesis bioassay, tumor incidence TD50, entry ClCC(Cl)CCl
2.13 mg/kg/day

Values compiled from PubChem BioAssay AID1745844.
